// values below are reported inhibition of SARS-CoV-2 cytopathic effect
Tested on: Vero E6 infected with SARS-CoV-2
Test: inhibition of SARS-CoV-2 cytopathic effect; higher = more antiviral protection, active = above 15
Conditions: 833.33 nM; 48 h
State just the number; it will be interpreted in %.

As a guide, the following entries are already answered.
[[record]]
molecule = "CC(C)=CCC[C@](C)(O)[C@@H]1CC=C(C)CC1"
unit_text = "%"
result = 3.97

[[record]]
molecule = "O=C1CCC[C@@H]2[C@H]3C[C@@H](CN12)[C@@H]1CCCCN1C3"
unit_text = "%"
result = 1.8

[[record]]
molecule = "COc1ccc(CCc2nc3cc(-c4c(C)noc4C)ccc3n2C[C@H](C)N2CCOCC2)cc1Cl"
unit_text = "%"
result = -1.13


Notebook: pull reported inhibition of SARS-CoV-2 cytopathic effect for Vero E6 infected with SARS-CoV-2, entry CC1=C(C)C(=O)C(C(CCCCCC(=O)O)c2ccccc2)=C(C)C1=O (stereo not drawn)
2.24

Record: `COc1cc(/C=C(\C#N)C(N)=O)cc(CSc2nc3ccccc3s2)c1O`
-0.02
